# Test system: GM-CSF induced STAT5 phosphorylation mediated by the JAK2/JAK2 homdimeric complex
# Assay explanation: GM-CSF Induced pSTAT5 in Human PBMC
# Experimental conditions: Homo sapiens, PBMC, 20 min, read-out: PBMC_GMCSF_pSTAT5 IC50, human PBMC; GM-CSF 5 ng/mL for 20 minutes; pSTAT5
pIC50: −log10 of the molar value.
Each record here notes measured pIC50.

CNc1cc(Nc2cc(Cl)cn([C@H]3CCCN(C)C3)c2=O)nc2c(C(=O)N[C@@H]3C[C@@H]3F)cnn12 [I-854]: < 4.30
CNc1cc(Nc2cccn(-c3ccc(N4CCOCC4)cn3)c2=O)nc2c(C(=O)NC3CCC3)cnn12 [I-163]: < 5.60
CNc1cc(Nc2cccnc2OC2CCC2)nc2c(C(=O)N[C@H]3C[C@H]3F)cnn12 [I-170]: < 4.30
CNc1cc(Nc2cccn(-c3nccs3)c2=O)nc2c(C(=O)N[C@H]3C[C@H]3F)cnn12 [I-243]: < 5.60
CNc1cc(Nc2cccn([C@H]3CCC[C@H](OC)C3)c2=O)nc2c(C(=O)N[C@H]3CC[C@@H]3OC)cnn12 [I-1098]: < 4.30

Suppose we examine the molecule CNc1cc(Nc2cccn([C@H]3CC[C@H](OC)CC3)c2=O)nc2c(C(=O)NC[C@H](C)CO)cnn12 [I-829] ; what pIC50 value has been reported? < 4.30

Suppose we examine the molecule CNc1cc(Nc2cccn(-c3ccc(C(=O)N4CCCC4)cn3)c2=O)nc2c(C(=O)NC3CCC3)cnn12 [I-121] ; what pIC50 value has been reported? < 4.90

Suppose we examine the molecule CNc1cc(-c2cn(CCN3CCN(C)CC3)c3ncccc23)nc2c(C(=O)N[C@H]3CC[C@@H]3OC)cnn12 [I-952] ; what pIC50 value has been reported? < 5.60

Suppose we examine the molecule CNc1cc(Nc2cccn(-c3ccn(C)n3)c2=O)nc2c(C(=O)NC3CCC3)cnn12 [I-139] ; what pIC50 value has been reported? < 4.30

Suppose we examine the molecule CNc1cc(Nc2cccn([C@@H]3CC[C@H]3OC)c2=O)nc2c(C(=O)N[C@@H]3C[C@@H]3F)cnn12 [I-1022] ; what pIC50 value has been reported? < 4.90

Suppose we examine the molecule CNc1cc(Nc2cccn([C@H]3CCC[C@H]3O)c2=O)nc2c(C(=O)NC3CC3)cnn12 [I-963] ; what pIC50 value has been reported? < 4.30

Suppose we examine the molecule CNc1cc(-c2cn(C(C)C)c3ncc(Cl)cc23)nc2c(C(N)=O)cnn12 [I-272] ; what pIC50 value has been reported? < 4.90

Suppose we examine the molecule CNc1cc(Nc2cccn(-c3ccn(C4CC4)n3)c2=O)nc2c(C(=O)N[C@@H]3C[C@@H]3F)cnn12 (stereo in doubt) [I-106] ; what pIC50 value has been reported? < 4.90

Suppose we examine the molecule CNc1cc(Nc2cccn([C@@H]3CCC[C@H](OC)C3)c2=O)nc2c(C(=O)N[C@@H]3CC[C@H]3OC)cnn12 [I-995] ; what pIC50 value has been reported? < 4.30

----------
Each record here notes measured IC50.
# System: GM-CSF induced STAT5 phosphorylation mediated by the JAK2/JAK2 homdimeric complex
# Assay explanation: GM-CSF Induced pSTAT5 in Human PBMC
# Experimental conditions: Homo sapiens, PBMC, 20 min, read-out: PBMC_GMCSF_pSTAT5 IC50, human PBMC; GM-CSF 5 ng/mL for 20 minutes; pSTAT5

CNc1cc(Nc2cccn([C@H]3CC[C@](C)(OC)CC3)c2=O)nc2c(C(=O)N[C@@H]3CC[C@H]3OC)cnn12 [I-959]: > 50 µM

Suppose we examine the compound CNc1cc(-c2cn(C3CC3)c3ncccc23)nc2c(C(=O)N[C@@H]3C[C@@H]3F)cnn12 [I-961] ; what IC50 value has been reported? > 50 µM

Suppose we examine the compound CNc1cc(Nc2cc(F)cn([C@H]3CCCOC3)c2=O)nc2c(C(=O)N[C@H]3C[C@H]3F)cnn12 [I-559] ; what IC50 value has been reported? > 50 µM

Suppose we examine the compound CNc1cc(Nc2cc(Cl)cn(C3CCCN(C)C3)c2=O)nc2c(C(=O)NC3CC3)cnn12 (stereo not shown) [I-740] ; what IC50 value has been reported? > 2.5 µM

Suppose we examine the compound CNc1cc(-c2cn(C3CCOCC3)c3ncccc23)nc2c(C(=O)NC3CCC3O)cnn12 (stereo not shown) [I-1048] ; what IC50 value has been reported? > 2.5 µM

Suppose we examine the compound CNc1cc(Nc2cccn([C@H]3CC[C@H](OC)CC3)c2=O)nc2c(C(=O)NCC3(CO)CC3)cnn12 [I-545] ; what IC50 value has been reported? > 2.5 µM

Suppose we examine the compound CNc1cc(Nc2cccn(-c3ocnc3C)c2=O)nc2c(C(=O)N[C@@H]3C[C@@H]3F)cnn12 [I-790] ; what IC50 value has been reported? > 12.5 µM

Suppose we examine the compound CNc1cc(Nc2cccnc2OC2CC2)nc2c(C(=O)NC3CCC3)cnn12 [I-216] ; what IC50 value has been reported? > 12.5 µM

Suppose we examine the compound CNc1cc(Nc2cccnc2OC)nc2c(C(=O)NC3CCC3O)cnn12 (stereo not shown) [I-390] ; what IC50 value has been reported? > 50 µM

Suppose we examine the compound CNc1cc(Nc2cccn(-c3ccccc3F)c2=O)nc2c(C(=O)N[C@H]3CC[C@@H]3O)cnn12 [I-1038] ; what IC50 value has been reported? > 50 µM

Suppose we examine the compound CNc1cc(Nc2cccn(C3CCCCC3)c2=O)nc2c(C(=O)N[C@@H]3CC[C@H]3O)cnn12 [I-943] ; what IC50 value has been reported? > 50 µM
